# TESTED SYSTEM: T1, human IL-4Rα (hIL-4Rα) monomeric protein (human, UniProt P24394 26-232, limits assumed)
# T1 construct: also called hIL-4Rα antigen; barcoded hIL-4Rα
# ASSAY OVERVIEW: Biacore (SPR)
We begin with a simple list: items and their reported pKd.
A value of pKd is the negative decimal logarithm of a concentration given in moles per litre.

Below, each entry is followed by its recorded pKd result.
- BINDER: "Table 1 Line # 25 antibody (SP_B_cell) (antibody, human IgG4, V domains shown, Cloned with human IgG4/human Igk constants for Kd; barcode counts are of the source cell's own IgG) VH: EVQLVESGGTVERPGGSLRLSCAASGFTFDDYGMSWVRQAPGKGLEWVSGTSWNGGHIGYADSVKGRFIISRDNAKNSLYLQINSLRVEDTALYYCTRDSTSSWYGVFDFWGQGTLVTVSS VL: DIQMTQSPSSLSASVGDRVTITCRASQDISINLAWYQQKPGKTPKLLIYAAASTLQSGVPSRFSGSGSGTDFTLTISSLQPEDVATYYCQNYNSAPRTFGQGTKVEIK"
  pKd: 7.01
- BINDER: "Table 1 Line # 35 antibody (SP_B_cell) (antibody, human IgG4, V domains shown, Cloned with human IgG4/human Igk constants for Kd; barcode counts are of the source cell's own IgG) VH: EVQLVESGGGLVKPGGSLRLSCAASGFTFSSYSMNWVRQAPGKGLEWVSSISSSSSYIYYADSVKGRFTISRDNAKNSLYLQMNSLRAEDTAVYYCARDRSSSPLENWGQGTLVTVSS VL: DIQMTQSPSSVSASVGDRVTITCRASQGISSWLAWYQQKPGKAPKLLIYAASSLQSGVPSRFSGSGSGTDFTLTISSLQPEDFATYYCQQANSFPITFGQGTRLEIK"
  pKd: 7.53

# input Could you tell me which pKd is on file for Table 1 Line # 19 antibody (BM_Plasma_cell) (antibody, human IgG4, V domains shown, Cloned with human IgG4/human Igk constants for Kd; barcode counts are of the source cell's own IgG) VH: EVQLVESGGGLVQPGRSLRLSCAASGFTFDDFAMHWVRQEPGKGLEWVSGISWNGGNIGYADSVKGRFTISRDNAKNSLYLQMNSLRAEDTAFYYCAKDVSSAWYGYFDYWGQGTLVTVSS VL: DIQMTQSPSTLSASVGDRVTITCRASQSVSSWLAWYQQKPGKAPKLLIYKASSLESGVPLRFSGSGSGTEFTLTISSLQPDDFATYYCQVYNSDSRTFGQGTKVEIK ?
# output 7.92
